Test system: OVCAR-4 ovarian
assay-remarks: NCI-60 one-dose screen, 48 h (100 = growth as untreated, 0 = no growth, -100 = all killed)
test-context: 10 µM unless noted
This is part of a sample that, as a whole, favours compounds with a hit. Of some 83,000 tested, about 20% had one in any assay.
Classification field: criterion met = growth at or over 50%; criterion not met = growth under 50%.

| compound | class |
| --- | --- |
| C=C1C(=O)O[C@H]2[C@H]1CC/C(COC(=O)NCCc1cccc(OC)c1)=C\CC[C@@]1(C)O[C@@H]21 | criterion not met |

Enquiry: hey, is growth for this one >= 50%? "O=C(CNC(=O)c1cccc2ccccc12)Nc1ccccc1Oc1ccccc1"
Return: criterion not met

Enquiry: hey, is growth for this one >= 50%? "CC(C)C[C@H](NC(=O)Cn1ccc(NCc2ccccc2)cc1=O)B(O)O"
Return: criterion not met

Enquiry: hey, is growth for this one >= 50%? Cc1c(C2=NNC(c3ccc4c(c3)OCO4)C2)[n+]([O-])c2ccccc2[n+]1[O-] (stereo unspecified)
Return: criterion met
